Molecular target: recombinant Human Phosphodiesterase B2 (PDE4B2) (Homo sapiens)
Sequence (Q07343 1-564 isoform Q07343-2): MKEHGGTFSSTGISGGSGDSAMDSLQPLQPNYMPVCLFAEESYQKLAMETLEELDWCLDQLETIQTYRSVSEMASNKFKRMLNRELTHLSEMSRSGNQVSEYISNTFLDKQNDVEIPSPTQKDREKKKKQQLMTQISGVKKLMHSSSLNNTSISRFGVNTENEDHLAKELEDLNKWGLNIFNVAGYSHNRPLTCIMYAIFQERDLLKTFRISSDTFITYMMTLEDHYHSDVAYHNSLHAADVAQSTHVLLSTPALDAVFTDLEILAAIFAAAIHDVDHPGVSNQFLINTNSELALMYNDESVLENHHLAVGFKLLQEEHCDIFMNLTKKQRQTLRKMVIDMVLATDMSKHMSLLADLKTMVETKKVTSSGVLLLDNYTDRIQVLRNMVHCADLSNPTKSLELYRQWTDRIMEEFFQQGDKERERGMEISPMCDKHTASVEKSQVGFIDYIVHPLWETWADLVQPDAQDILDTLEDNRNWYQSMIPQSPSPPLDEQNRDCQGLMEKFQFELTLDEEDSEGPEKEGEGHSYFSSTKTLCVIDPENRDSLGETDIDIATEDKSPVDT
Assay: Human Phosphodiesterase B2 Radiometric Assay (yttrium silicate SPA beads, [3H]cyclic AMP)
Assay type: biochemical
Conditions: recombinant human PDE4B2, radiometric SPA assay, 8 nM [3H]cyclic AMP; read-out: PDE4B2 pIC50 (converted)
Experimental: Human Phosphodiesterase B2 Radiometric Assay The assay uses recombinant Human Phosphodiesterase B2 (PDE4B2) produced in house (PrAZL0163), stored at −20° C. […] Bound [3H]cyclic AMP was measured using a Topcount NXT (Packard Bioscience, UK). pIC50 values (presented in Table 15) were determined using Xlfit3 curve fitting, using model 205.
measured.parameter: IC50 (nM)
Answers are plain numbers, in nM.

Past entries and their recorded results:
compound	IC50 [nM]
Cc1cnc(C(=O)N[C@H]2CC[C@@H](n3c(=O)c4cc(F)cnc4n(-c4cccc(-c5ccc(CN6C[C@@H](C)N[C@@H](C)C6)cc5)c4)c3=O)CC2)cn1 [Example 361]	0.2
O=C(N[C@H]1CC[C@@H](n2c(=O)c3cc(F)cnc3n(-c3cccc(-c4ccc(CN5CCCNCC5)cc4)c3)c2=O)CC1)c1cnc2ccccc2n1 [Example 352]	0.0158
O=C(N[C@H]1CC[C@@H](n2c(=O)c3cc(F)cnc3n(-c3cccc(-c4ccc(CN5CCCOCC5)cc4)c3)c2=O)CC1)c1cn2c(n1)CCCC2 [Example 224]	0.01
CN(Cc1cc(O)ccc1-c1cccc(-n2c(=O)n([C@H]3CC[C@@H](NCc4cn5cc(F)ccc5n4)CC3)c(=O)c3cc(F)cnc32)c1)C1(CO)CC1 [Example 321]	0.1
O=C(N[C@H]1CC[C@@H](n2c(=O)c3cc(F)cnc3n(-c3cccc(-c4ccc(CN5CCCNCC5)cc4)c3)c2=O)CC1)c1ccc2ccccc2n1 [Example 350]	0.0158

Name the recorded IC50 for O=C(N[C@H]1CC[C@@H](n2c(=O)c3cc(F)cnc3n(-c3cccc(-c4ccc(CCN5CCOCC5)cc4)c3)c2=O)CC1)c1cn2cc(F)ccc2n1 [Example 50] .
0.00794
